This section presents compounds with their documented TGI values.
system: OVCAR-4 ovarian; test: NCI tumour cell line growth inhibition, 48 h
measured_attribute: TGI

compound | tested_on | assay_result
Nc1n[n+](=O)c2ccccc2n1O | OVCAR-4 ovarian | > 100 µM
CC1(C)OC(=O)C(c2cccs2)C(=O)O1 | OVCAR-4 ovarian | > 100 µM
C=C1CC2(OC1=O)C(=O)N(C)c1ccc(I)cc12 (stereo unspecified) | OVCAR-4 ovarian | 5.43 µM
COc1cc(C(=O)c2c(-c3ccccc3)oc3c(OC)cccc23)cc(OC)c1O | OVCAR-4 ovarian | > 100 µM
COc1ccc2c(c1)[C@@H]1c3cc(OC)c(OC)cc3CCN1CCC2 | OVCAR-4 ovarian | > 100 µM
COc1ccc(C2/C(=C(\O)c3ccccc3)C(=O)C(O)(CC(=O)c3ccccc3)N2c2ccc(OC)cc2)cc1 (stereo unspecified) | OVCAR-4 ovarian | > 100 µM
COc1ccc(-c2c(-c3cc(OC)c(OC)c(OC)c3)nc3sc(C4CC4)nn23)cc1OC | OVCAR-4 ovarian | > 100 µM
O=[N+]([O-])c1ccc2[nH]c3c(-c4ccccc4)nccc3c2c1 | OVCAR-4 ovarian | > 63.1 µM
Cc1ccc(/C(=N/NS(=O)(=O)c2ccc([N+](=O)[O-])cc2)Sc2cc(Cl)c(C)cc2S(N)(=O)=O)cc1 | OVCAR-4 ovarian | > 100 µM
CC(=O)Oc1ccc2[nH]c3c(C)c4cccc-4ccc3c2c1 | OVCAR-4 ovarian | 3.5 µM
O=C1C=CC(=O)c2c1ccc1c3ccccc3n(CCCCCCCCn3c4ccccc4c4ccc5c(c43)C(=O)C=CC5=O)c21 | OVCAR-4 ovarian | > 100 µM
O=[N+]([O-])c1ccc(C2N3CCCCC3[C@H]3CCCCN23)cc1 (stereo partly specified) | OVCAR-4 ovarian | > 100 µM
CO[C@@H]1C[C@H]2[C@@H]3CC[C@H]([C@H](C)CO)[C@@]3(C)CC[C@@H]2[C@@]2(C)CC[C@H]3C[C@]312 | OVCAR-4 ovarian | > 100 µM
c1ccc2c(c1)c1ccccc1c1n[se]nc21 | OVCAR-4 ovarian | > 100 µM
COc1cccc(/C=C/c2ccc(S(N)(=O)=O)cc2)c1 | OVCAR-4 ovarian | > 100 µM
N#C/C(C(=O)Nc1ccccc1)=C(/N)N1CCCC1 | OVCAR-4 ovarian | > 100 µM
CCCOP1(=O)C=C(O)C(Cl)=C(C)C1 (stereo unspecified) | OVCAR-4 ovarian | > 100 µM
CC(/C=N/N(C)C1=NCCCN1)=N/N(C)C1=NCCCN1 | OVCAR-4 ovarian | > 100 µM
CCCCC(=O)OC[n+]1cccc(-c2c(COC(=O)NC(C)C)c(COC(=O)NC(C)C)c3n2CCC3)c1 | OVCAR-4 ovarian | > 92.6 µM
C/C(=N\NC(=S)Nc1ccccc1)c1nc2ncccc2[nH]1 | OVCAR-4 ovarian | 47.4 µM
COc1ccc2c3c1O[C@H]1[C@@H](O)CC[C@@]4(O)[C@@H](C2)N(C)CC[C@]314 | OVCAR-4 ovarian | > 100 µM
